Protocol details: PK/PD of NOD-SCID mouse (drug concentration in blood and in tumors)
Format: in vivo
Test parameters: NOD-SCID, mouse, plasma, po, 50 mg/kg, p.o. (50 mg/kg), SNU878 model
Protocol: This experiment conducted when the pharmacological experiment in vivo was performed by gavage administration, wherein, the blood samples and tumor samples were taken at different time points to detect drug concentration in blood and drug concentrations in tumors. (1) Mode of administration: gavage administration; (2) Dosage: 50 mg/kg in the gavage administration; Three mice were sampled at each sampling point; […]
Quantity kind: half-life (h)
Answers are plain numbers, in h.

half-life for CSC[C@@H](C)Nc1cc(NC(=O)N2CCCc3cc(CN4CCN(C)CC4=O)c(C=O)nc32)ncc1C#N [Compound 4] ?
2.3

---

Protocol details: PK analysis of rats
Type: in vivo
Test parameters: rat, plasma, po; SD rats, p.o. (10 mg/kg); read-out: Drug concentration in blood Cmax
Please provide measured Cmax for the entries that follow.
Numbers only, in ng/mL.

Some compounds with known Cmax results, for comparison:
compound="COCCNc1cc(NC(=O)N2CCCc3cc(CN4CCN(C)CC4=O)c(C=O)nc32)ncc1C#N [Reference compound, roblitinib, reference compound]" quantity_kind=Cmax unit=ng/mL experimental_value=350
compound="CN1CCN(Cc2cc3c(nc2C=O)N(C(=O)Nc2cc(NCc4nccs4)c(C#N)cn2)CCC3)C(=O)C1 [Compound 56]" quantity_kind=Cmax unit=ng/mL experimental_value=548
compound="CN1CCN(Cc2cc3c(nc2C=O)N(C(=O)Nc2cc(NC4CCSC4)c(C#N)cn2)CCC3)C(=O)C1 (stereo not shown) [Compound 5]" quantity_kind=Cmax unit=ng/mL experimental_value=1400

Please examine the following record next.
Quick one: Cmax of CSC[C@@H](C)Nc1cc(NC(=O)N2CCCc3cc(CN4CCN(C)CC4=O)c(C=O)nc32)ncc1C#N [Compound 4] ?
1450

---

Exercise: state measured concentration at 4 h for each of the compounds provided.
Protocol details: PK/PD of NOD-SCID mouse (drug concentration in blood and in tumors)
Format: in vivo
Test parameters: NOD-SCID, mouse, tumor, po, 50 mg/kg, p.o. (50 mg/kg), Hep3B model, 4 h
Answers are plain numbers, in ng/g.

compound="COCCNc1cc(NC(=O)N2CCCc3cc(CN4CCN(C)CC4=O)c(C=O)nc32)ncc1C#N [Reference compound, roblitinib, reference compound]" experimental_value=64.4

Attention now turns to another entry.
Which concentration at 4 h value is on record for CSC[C@@H](C)Nc1cc(NC(=O)N2CCCc3cc(CN4CCN(C)CC4=O)c(C=O)nc32)ncc1C#N [Compound 4] ?
1210

---

Protocol details: PK/PD of NOD-SCID mouse (drug concentration in blood and in tumors)
Format: in vivo
Test parameters: NOD-SCID, mouse, plasma, po, 50 mg/kg, p.o. (50 mg/kg), SNU878 model
Quantity kind: Tmax (h)
Give bare numbers, in h.

molecule="COCCNc1cc(NC(=O)N2CCCc3cc(CN4CCN(C)CC4=O)c(C=O)nc32)ncc1C#N [Reference compound, roblitinib, reference compound]" quantity_kind=Tmax experimental_value=4

Consider now this further molecule.
Recorded Tmax of `CSC[C@@H](C)Nc1cc(NC(=O)N2CCCc3cc(CN4CCN(C)CC4=O)c(C=O)nc32)ncc1C#N` , please.
1

---

Subject of test: FGFR4 kinase (Homo sapiens (Human), UniProt P22455)
Sequence (P22455 22-802): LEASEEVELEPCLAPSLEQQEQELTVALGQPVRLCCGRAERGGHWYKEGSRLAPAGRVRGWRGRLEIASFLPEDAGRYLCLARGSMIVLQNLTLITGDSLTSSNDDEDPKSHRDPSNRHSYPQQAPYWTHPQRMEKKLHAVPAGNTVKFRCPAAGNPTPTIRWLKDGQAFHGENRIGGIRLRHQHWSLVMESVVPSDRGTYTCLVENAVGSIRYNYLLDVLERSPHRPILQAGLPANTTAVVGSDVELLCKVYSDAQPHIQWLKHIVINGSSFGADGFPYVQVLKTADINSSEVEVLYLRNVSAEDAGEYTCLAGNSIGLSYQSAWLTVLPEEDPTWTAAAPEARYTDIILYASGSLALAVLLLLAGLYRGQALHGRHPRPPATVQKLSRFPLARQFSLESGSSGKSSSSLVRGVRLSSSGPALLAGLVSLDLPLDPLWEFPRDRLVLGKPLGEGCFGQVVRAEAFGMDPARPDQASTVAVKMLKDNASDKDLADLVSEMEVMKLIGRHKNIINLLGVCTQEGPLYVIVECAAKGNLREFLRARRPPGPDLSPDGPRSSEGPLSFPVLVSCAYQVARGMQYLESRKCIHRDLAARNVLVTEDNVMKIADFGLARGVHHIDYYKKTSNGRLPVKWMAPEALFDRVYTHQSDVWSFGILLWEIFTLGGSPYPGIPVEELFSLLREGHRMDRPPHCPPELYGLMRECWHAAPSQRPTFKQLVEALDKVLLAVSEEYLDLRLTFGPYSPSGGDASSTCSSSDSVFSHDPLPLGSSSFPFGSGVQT
Could you please report measured pIC50 for the items listed next?
Answers are plain numbers, as −log10 of the molar value.

Use these answered entries as a reference point.
compound=CSC(C)(C)CNc1cc(NC(=O)N2CCCc3cc(CN4CCN(C)CC4=O)c(C=O)nc32)ncc1C#N experimental_value=8.68
compound=C[C@H](CS(C)(=O)=O)Nc1cc(NC(=O)N2CCCc3cc(CN4CCN(C)CC4=O)c(C=O)nc32)ncc1C#N experimental_value=8.68
compound=CSC[C@@H](C)Nc1cc(NC(=O)N2CCCc3cc(CN4CCN(C)CC4=O)c(C=O)nc32)ncc1C#N experimental_value=8.85
compound=CN1CCN(Cc2cc3c(nc2C=O)N(C(=O)Nc2cc(NCCSC(F)(F)F)c(C#N)cn2)CCC3)C(=O)C1 experimental_value=8.77
compound="C[C@H](C[S+](C)[O-])Nc1cc(NC(=O)N2CCCc3cc(CN4CCN(C)CC4=O)c(C=O)nc32)ncc1C#N (stereo partly shown)" experimental_value=8.68

# return pIC50 for each item in the list
1. CSCCCNc1cc(NC(=O)N2CCCc3cc(CN4CCN(C)CC4=O)c(C=O)nc32)ncc1C#N
2. CN1CCN(Cc2cc3c(nc2C=O)N(C(=O)Nc2cc(NCCS(C)(=O)=O)c(C#N)cn2)CCC3)C(=O)C1.Cl [Compound 72, hydrochloride]
3. CN1CCN(Cc2cc3c(nc2C=O)N(C(=O)Nc2cc(NCc4cncs4)c(C#N)cn2)CCC3)C(=O)C1
4. CN1CCN(Cc2cc3c(nc2C=O)N(C(=O)Nc2cc(NC4CCSCC4)c(C#N)cn2)CCC3)C(=O)C1

8.80
8.70
8.52
8.36

---

Protocol details: PK analysis of rats
Type: in vivo
Test parameters: rat, plasma, po; SD rats, p.o. (10 mg/kg); read-out: Curve area AUC0-24 h
Classification field: 1.0 = AUC(0-t) at or over 3000 ng·h/mL; 0.0 = AUC(0-t) under 3000 ng·h/mL.

Is it the case that `CN1CCN(Cc2cc3c(nc2C=O)N(C(=O)Nc2cc(NC4CCSCC4)c(C#N)cn2)CCC3)C(=O)C1` has AUC(0-t) reaching or exceeding 3000 ng·h/mL?
0.0

Next: `CN1CCN(Cc2cc3c(nc2C=O)N(C(=O)Nc2cc(NCc4nccs4)c(C#N)cn2)CCC3)C(=O)C1`
0.0

Also need COCCNc1cc(NC(=O)N2CCCc3cc(CN4CCN(C)CC4=O)c(C=O)nc32)ncc1C#N [Reference compound, roblitinib, reference compound] , thanks.
0.0

Would you mind doing `CSCCNc1cc(NC(=O)N2CCCc3cc(CN4CCCCOC4=O)c(C=O)nc32)ncc1C#N` as well?
1.0

Same question, `CSC[C@@H](C)Nc1cc(NC(=O)N2CCCc3cc(CN4CCN(C)CC4=O)c(C=O)nc32)ncc1C#N` this time
1.0

Consider next the molecule CN1CCN(Cc2cc3c(nc2C=O)N(C(=O)Nc2cc(NC4CCSC4)c(C#N)cn2)CCC3)C(=O)C1 (stereo not shown) in the same way.
1.0

Now try `CSC[C@@H](C)Nc1cc(NC(=O)N2CCCc3cc(CN4CCCC4=O)c(C=O)nc32)ncc1C#N` .
0.0

---

Would you mind telling me the reported Cmax of each entry?
Protocol details: PK/PD of NOD-SCID mouse (drug concentration in blood and in tumors)
Assay type: in vivo
Test parameters: NOD-SCID, mouse, plasma, po, 50 mg/kg, p.o. (50 mg/kg), SNU878 model
One number for each entry, in ng/mL.

molecule=CSC[C@@H](C)Nc1cc(NC(=O)N2CCCc3cc(CN4CCN(C)CC4=O)c(C=O)nc32)ncc1C#N quantity_kind=Cmax experimental_value=1230

Now consider the entry below.
Cmax for COCCNc1cc(NC(=O)N2CCCc3cc(CN4CCN(C)CC4=O)c(C=O)nc32)ncc1C#N [Reference compound, roblitinib, reference compound] ?
5430

---

Protocol details: PK/PD of NOD-SCID mouse (drug concentration in blood and in tumors)
Assay type: in vivo
Test parameters: NOD-SCID, mouse, plasma, po, 50 mg/kg, p.o. (50 mg/kg), Hep3B model; read-out: AUC0-6 h
Quantity kind: AUC(0-t) (ng·h/mL)
Give bare numbers, in ng·h/mL.

compound="CSC[C@@H](C)Nc1cc(NC(=O)N2CCCc3cc(CN4CCN(C)CC4=O)c(C=O)nc32)ncc1C#N [Compound 4]" quantity_kind=AUC(0-t) experimental_value=3020

Query compound follows.
Quick one: AUC(0-t) for COCCNc1cc(NC(=O)N2CCCc3cc(CN4CCN(C)CC4=O)c(C=O)nc32)ncc1C#N [Reference compound, roblitinib, reference compound] ?
20200

---

System: Hepatoma cell Hep3B (high expression of FGFR4 and FGF19)
Protocol details: Hepatoma cell proliferation inhibition experiment (MTS method)
Format: cell-based
Test parameters: Homo sapiens, Hep3B; 120 h incubation; read-out: Hep3B(IC50 μM)
Quantity kind: log10(IC50) (log10 of the value in µM)
// stored as log10 of IC50 expressed in µM

Worked examples, 8 compounds total:
compound="CN1CCN(Cc2cc3c(nc2C=O)N(C(=O)Nc2cc(NCCS(C)(=O)=O)c(C#N)cn2)CCC3)C(=O)C1.Cl [Compound 72, hydrochloride]" experimental_value=-0.55
compound="CO[C@@H]1CCN(Cc2cc3c(nc2C=O)N(C(=O)Nc2cc(N[C@H](C)CSC)c(C#N)cn2)CCC3)C1=O [Compound 9]" experimental_value=-2.05
compound="CSCC(C)Nc1cc(NC(=O)N2CCCc3cc(CN4CCN(C)CC4=O)c(C=O)nc32)ncc1C#N (stereo not drawn) [Compound 82]" experimental_value=-1.70
compound="CSCCNc1cc(NC(=O)N2CCCc3cc(CN4CCN(C)CC4=O)c(C=O)nc32)ncc1C#N [Compound 1]" experimental_value=-1.64
compound="CN1CCN(Cc2cc3c(nc2C=O)N(C(=O)Nc2cc(NCc4ccsn4)c(C#N)cn2)CCC3)C(=O)C1 [Compound 68]" experimental_value=-1.59
compound="CSCCNc1cc(NC(=O)N2CCCc3cc(CN(C)C(=O)C4CCOCC4)c(C=O)nc32)ncc1C#N.Cl [Compound 73, hydrochloride]" experimental_value=-1.41
compound="CSC[C@@H](C)Nc1cc(NC(=O)N2CCCc3cc(CN4CCCC4=O)c(C=O)nc32)ncc1C#N [Compound 7]" experimental_value=-1.96
compound="CSCCOc1cc(NC(=O)N2CCCc3cc(CN4CCN(C)CC4=O)c(C=O)nc32)ncc1C#N [Compound 2]" experimental_value=-1.55

// moving on: another record for log10(IC50)
Need log10(IC50), item CSCCNc1cc(NC(=O)N2CCCc3cc(CN4CCCCOC4=O)c(C=O)nc32)ncc1C#N [Compound 16]
-1.54
